// each record: one item and its IC50 for Histone deacetylase 1 (Homo sapiens, UniProt Q13547)

Example results:
Structure smiles: O=C(O)CCCCN1C(=O)[C@H](CCC(=O)O)N=C(c2ccccc2)c2ccccc21
IC50: > 30 µM
//
Structure smiles: CSCC[C@@H]1N=C(c2ccccc2)c2ccccc2N(CCCCC(=O)NO)C1=O
IC50: 6.43 µM
//
Structure smiles: CC(C)[C@@H]1N=C(c2ccccc2)c2ccccc2NC1=O
IC50: > 30 µM

Fill in the recorded IC50 for this compound, with Histone deacetylase 1 (Homo sapiens, UniProt Q13547) as test system: "O=C(CC[C@H]1N=C(c2ccccc2)c2ccccc2NC1=O)NO"
Sequence (Q13547 whole entry): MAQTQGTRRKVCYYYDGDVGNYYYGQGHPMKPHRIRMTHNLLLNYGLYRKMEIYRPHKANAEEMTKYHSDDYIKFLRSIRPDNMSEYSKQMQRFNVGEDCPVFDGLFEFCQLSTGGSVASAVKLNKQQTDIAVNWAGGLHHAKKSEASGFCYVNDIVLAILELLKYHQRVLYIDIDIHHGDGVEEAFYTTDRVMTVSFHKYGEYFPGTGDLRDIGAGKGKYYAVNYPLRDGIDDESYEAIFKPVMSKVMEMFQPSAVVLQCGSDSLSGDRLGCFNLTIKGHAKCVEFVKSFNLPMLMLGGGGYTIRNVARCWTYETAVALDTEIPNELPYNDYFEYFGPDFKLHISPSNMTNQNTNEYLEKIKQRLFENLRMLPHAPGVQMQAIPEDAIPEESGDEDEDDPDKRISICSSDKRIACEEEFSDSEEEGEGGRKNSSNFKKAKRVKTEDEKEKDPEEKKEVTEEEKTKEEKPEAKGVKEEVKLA
> 30 µM

Which IC50 is reported with Histone deacetylase 1 (Homo sapiens, UniProt Q13547) for this entry: "COC(=O)CCCCN1C(=O)[C@H](Cc2cc3ccccc3n2C(=O)OC(C)(C)C)N=C(c2ccccc2)c2ccccc21" ?
> 30 µM

Short answer please: IC50, Histone deacetylase 1 (Homo sapiens, UniProt Q13547), entry "COC(=O)CCCCN1C(=O)[C@H](CC(C)C)N=C(c2ccccc2)c2ccccc21"
> 30 µM

----------
Biological target: Histone deacetylase 3 (Homo sapiens, UniProt O15379)
Sequence (O15379 whole entry): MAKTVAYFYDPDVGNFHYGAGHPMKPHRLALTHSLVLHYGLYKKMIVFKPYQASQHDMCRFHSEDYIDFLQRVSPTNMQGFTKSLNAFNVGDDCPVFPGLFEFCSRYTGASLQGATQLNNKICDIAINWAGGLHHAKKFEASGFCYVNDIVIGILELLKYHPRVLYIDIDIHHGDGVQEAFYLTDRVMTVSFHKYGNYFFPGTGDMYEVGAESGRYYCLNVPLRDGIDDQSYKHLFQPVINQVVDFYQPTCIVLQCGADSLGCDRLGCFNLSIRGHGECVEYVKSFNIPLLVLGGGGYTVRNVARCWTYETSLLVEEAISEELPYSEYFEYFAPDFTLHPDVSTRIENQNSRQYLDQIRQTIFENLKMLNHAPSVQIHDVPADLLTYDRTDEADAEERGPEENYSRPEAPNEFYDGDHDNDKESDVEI
Endpoint name: pIC50
Quick note: pIC50 values are minus log10 of concentrations in mol/L.

Some entries whose results are on file:
Structure smiles: CSCC[C@@H]1N=C(c2ccccc2)c2ccccc2N(CCCCC(=O)NO)C1=O
Endpoint name: pIC50
Test value: 6.37

Structure smiles: CC(C)C[C@@H]1N=C(c2ccccc2)c2ccccc2N(CCCCC(=O)NO)C1=O
Endpoint name: pIC50
Test value: 6.24

Structure smiles: CC[C@@H](C)[C@@H]1N=C(c2ccccc2)c2ccccc2N(CCCCC(=O)NO)C1=O
Endpoint name: pIC50
Test value: 5.99

Structure smiles: CC(C)(C)SC[C@H]1N=C(c2ccccc2)c2ccccc2N(CCCCC(=O)NO)C1=O
Endpoint name: pIC50
Test value: 6.12

Structure smiles: O=C(CCCCN1C(=O)[C@H](Cc2cc3ccccc3[nH]2)N=C(c2ccccc2)c2ccccc21)NO
Endpoint name: pIC50
Test value: 6.00

Structure smiles: Cc1c(C)c(S(=O)(=O)NC(=N)NCCC[C@@H]2N=C(c3ccccc3)c3ccccc3N(CCCCC(=O)NO)C2=O)c(C)c2c1OC(C)(C)C2
Endpoint name: pIC50
Test value: 5.37

Find the measured pIC50: item "C[C@@H](O)[C@@H]1N=C(c2ccccc2)c2ccccc2N(CCCCC(=O)NO)C1=O" , target or system Histone deacetylase 3 (Homo sapiens, UniProt O15379).
5.74

----------
Target: Histone deacetylase 1 (Homo sapiens)
Assay: Inhibition of human KDAC1 at 30 uM using substrate A after 60 mins by fluorescence assay relative to control
Form field: inhibition (one value per entry).
// units = %; emit number, no label

Please review the following examples before continuing.
Structure smiles: CC(C)[C@@H]1N=C(c2ccccc2)c2ccccc2N(CCCCC(=O)NO)C1=O
System under test: Histone deacetylase 1 (Homo sapiens)
Test value: 81.4

Structure smiles: O=C1CN=C(c2ccccc2)c2ccccc2N1
System under test: Histone deacetylase 1 (Homo sapiens)
Test value: 7.95

Structure smiles: CC(C)(C)OC(=O)n1c(C[C@@H]2N=C(c3ccccc3)c3ccccc3N(CCCCC(=O)NO)C2=O)cc2ccccc21
System under test: Histone deacetylase 1 (Homo sapiens)
Test value: 46.9

Structure smiles: O=C(CCCNC(=O)CC[C@@H]1N=C(c2ccccc2)c2ccccc2NC1=O)NO
System under test: Histone deacetylase 1 (Homo sapiens)
Test value: 55.8

Structure smiles: O=C(O)CC[C@H]1N=C(c2ccccc2)c2ccccc2NC1=O
System under test: Histone deacetylase 1 (Homo sapiens)
Test value: 10.2

Structure smiles: CC(C)(C)OC(=O)CC[C@@H]1N=C(c2ccccc2)c2ccccc2N(CCCCC(=O)O)C1=O
System under test: Histone deacetylase 1 (Homo sapiens)
Test value: 7.96

Structure smiles: O=C(O)CCCCN1C(=O)[C@H](CC(=O)NC(c2ccccc2)(c2ccccc2)c2ccccc2)N=C(c2ccccc2)c2ccccc21
System under test: Histone deacetylase 1 (Homo sapiens)
Test value: 8.49

Structure smiles: COC(=O)CCCCN1C(=O)[C@H](CC(C)C)N=C(c2ccccc2)c2ccccc21
System under test: Histone deacetylase 1 (Homo sapiens)
Test value: 8.85

Structure smiles: CC(C)[C@@H]1N=C(c2ccccc2)c2ccccc2NC1=O
System under test: Histone deacetylase 1 (Homo sapiens)
Test value: 0

Structure smiles: CC(C)(C)Oc1ccc(C[C@@H]2N=C(c3ccccc3)c3ccccc3N(CCCCC(=O)O)C2=O)cc1
System under test: Histone deacetylase 1 (Homo sapiens)
Test value: 4.65

# get_value(readout='inhibition', item= "O=C(CCCCN1C(=O)[C@H](CCC(=O)NO)N=C(c2ccccc2)c2ccccc21)NO" )
62.5

Ref: ChEMBL document CHEMBL3997794
